Biological target: Amine oxidase [flavin-containing] A (Homo sapiens, UniProt P21397)
Sequence (P21397 whole entry): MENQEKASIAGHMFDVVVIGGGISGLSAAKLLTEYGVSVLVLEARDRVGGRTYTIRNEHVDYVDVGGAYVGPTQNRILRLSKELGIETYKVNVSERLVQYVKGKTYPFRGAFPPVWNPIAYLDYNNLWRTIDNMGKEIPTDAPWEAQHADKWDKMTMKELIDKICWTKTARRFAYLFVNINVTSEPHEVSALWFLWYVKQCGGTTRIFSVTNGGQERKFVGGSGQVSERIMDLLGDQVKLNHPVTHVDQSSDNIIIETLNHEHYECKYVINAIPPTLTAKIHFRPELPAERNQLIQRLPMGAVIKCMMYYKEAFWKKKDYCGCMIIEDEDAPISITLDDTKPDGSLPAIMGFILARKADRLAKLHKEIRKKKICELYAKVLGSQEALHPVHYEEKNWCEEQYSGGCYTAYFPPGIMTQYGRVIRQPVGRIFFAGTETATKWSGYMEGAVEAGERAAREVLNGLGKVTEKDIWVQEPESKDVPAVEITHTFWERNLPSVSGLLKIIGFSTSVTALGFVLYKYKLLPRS
Assay: Inhibition of human recombinant MAO-A using tyramine as substrate preincubated for 30 mins followed by substrate addition measured for 1 hr by fluorometric assay
Settings: read-out: IC50
For each of the molecules below, state its pIC50.
Answers are plain numbers, as −log10 of the molar value.

Sample answers from the record:
Chem Smiles	pIC50
C#CCN(C)Cc1cc2cc(OCCCC3CCN(Cc4ccccc4)CC3)ccc2n1C	8.38
CCOC(=O)c1cc2cc(OCCCC3CCN(Cc4ccccc4)CC3)ccc2n1C	5.82

Go through the list and state pIC50 for each entry.
1. C=CCNCc1cc2cc(OCCCC3CCN(Cc4ccccc4)CC3)ccc2n1C
2. C#CCNCc1cc2cc(OCCCC3CCN(Cc4ccccc4)CC3)ccc2n1C
3. Cn1c(CN2CCOCC2)cc2cc(OCCCC3CCN(Cc4ccccc4)CC3)ccc21
4. Cn1c(CO)cc2cc(OCCCC3CCN(Cc4ccccc4)CC3)ccc21

Return:
1: 6.01; 2: 8.26; 3: 5.36; 4: 5.37

These measurements were taken from ChEMBL document CHEMBL3124868.
